- Tested on: MS2 coat protein
- assayDetails: apparent KD of MS2 coat protein; designed switch direction (-1 OFF switch, 1 ON switch): -1; higher = weaker reporter binding
- conditionsUsed: input ligand: none
observable: apparent KD of MS2 coat protein (nM)
Write it as a number; the unit nM goes unstated.

The cases that follow already have their apparent KD of MS2 coat protein on record.
1) UUCACAUGGACAUAAGAUCACAUGAGGAUCACCCAUGUGAAUAACAAGCUUUUUGCUCGUCUUAUGUCCAAUAAUAA [Stov1/14-A1] (Eterna round: R97, puzzle: Sensor, turn-off variant 1): 12.2
2) UAAGCUACUGUCAGGAUAUCGUAAUUGGUGAACGACGAGAAGGGACAUGAGGAUCACCCAUGUCGAUGACUGGG [Eternabot (L2) Solution 97] (Eterna round: R97, puzzle: Brourd's mod of Exclusion 4): 200
3) AGACCGAUAGCAGGAUAUAGGACGACGAGAGCGCUAGAAGGGCUGACGACAUGAGGAUCACCCAUGUUUUCGUCUCAACAGGCA [Eternabot solution 22] (Eterna round: R96, puzzle: Exclusion NG 1): 29.2

Query: So what does the record say about apparent KD of MS2 coat protein for AUUGUUUGAUACCUUUAAUACAUGAGGAUCACCCAUGUUAUCGAGGAUAUGUAGAAGAGAUGAGAACAGAAGGCGAAGUAAGAG [JR_ExcNG3_Sub096] (Eterna round: R96, puzzle: Exclusion NG 3) ?
Reply: 16.5
